Test system: PAX3-FOXO1 fusion transcription factor
Test: RH4 ALK-Luc luciferase reporter assay (PAX3-FOXO1 super enhancer activity)
Type: cell-based, human
Conditions: RH4 ALK-Luc reporter; 1 μM
Protocol: The screen was performed using two derivatives of RH4 FP-RMS cells: • (1) “ALK-Luc cells”—RH4 cells expressing a pGreenFire green fluorescent protein (GFP)-luciferase reporter (SEQ ID NO: 1) controlled by the PAX3-FOXO1-dependent intronic ALK super enhancer (for reporting on PAX3-FOXO1 activity) (FIGS. 1 and 2); and • (2) “CMV-Luc cells”—control RH4 cells in which the reporter is transcribed from a constitutively active cytomegalovirus (CMV) promoter. […]
Label 1.0 when Avg Absorbance @ 1 μM, ALK-Luc is at or above 100; otherwise label 0.0.

{"COMPOUND": "O=C(NNC(=O)c1ccccn1)c1ccccn1", "LABEL": 1.0}

State whether the measured Avg Absorbance @ 1 μM, ALK-Luc reaches 100, counting equality as reaching it, for Cc1cccc(C(=O)NNC(=O)c2ccccc2)c1 [PFI-88]
0.0

State whether the measured Avg Absorbance @ 1 μM, ALK-Luc reaches 100, counting equality as reaching it, for CC(=O)NNC(=O)c1ccc2ccccc2n1
0.0

Origin of the recorded values: patent US20230015647A1
